- Study system: Clks (Clk1, Clk2, and Clk3)
- Assay method text: In vitro kinase assays, Clk family as a whole
- Run parameters: range over Clk1, Clk2, Clk3; read-out: IC50 on Clks (all three Clks, Clk1-3)
Recorded metric: IC50

So what does the record say about IC50 for O=C(O)c1ccc2c(c1)nc(Nc1cccc(Cl)c1)c1ccncc12 [CX-4945] ? 3 to 90 nM

====

- Study system: SRPKs (SRPK1 and SRPK2)
- Assay method text: In vitro kinase assays, SRPK family as a whole
Recorded metric: IC50

So what does the record say about IC50 for O=C(O)c1ccc2c(c1)nc(Nc1cccc(Cl)c1)c1ccncc12 [CX-4945] ? > 1 µM

====

- Study system: recombinant human Clk3 (Homo sapiens, UniProt P49761)
- Sequence (P49761 whole entry): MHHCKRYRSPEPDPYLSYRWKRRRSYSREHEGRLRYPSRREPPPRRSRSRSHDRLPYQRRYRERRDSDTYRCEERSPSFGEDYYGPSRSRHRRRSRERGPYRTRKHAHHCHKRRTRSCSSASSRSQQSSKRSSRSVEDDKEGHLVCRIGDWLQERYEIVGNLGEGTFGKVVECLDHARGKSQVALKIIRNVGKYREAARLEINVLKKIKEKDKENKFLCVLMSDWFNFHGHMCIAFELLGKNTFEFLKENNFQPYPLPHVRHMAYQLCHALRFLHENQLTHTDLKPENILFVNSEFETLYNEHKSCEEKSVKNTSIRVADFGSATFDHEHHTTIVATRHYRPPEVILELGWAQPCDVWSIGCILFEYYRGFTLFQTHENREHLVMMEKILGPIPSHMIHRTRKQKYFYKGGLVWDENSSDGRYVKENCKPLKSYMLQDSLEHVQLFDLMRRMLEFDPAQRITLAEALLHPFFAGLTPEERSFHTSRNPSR
- Assay method text: In vitro kinase assay (Life Technologies), Clk3
- Format: biochemical
Recorded metric: IC50 (nM)
Answers are plain numbers, in nM.

So what does the record say about IC50 for O=C(O)c1ccc2c(c1)nc(Nc1cccc(Cl)c1)c1ccncc12 ? 90

====

- Study system: recombinant human SRPK1 (Homo sapiens, UniProt Q96SB4)
- Sequence (Q96SB4 whole entry): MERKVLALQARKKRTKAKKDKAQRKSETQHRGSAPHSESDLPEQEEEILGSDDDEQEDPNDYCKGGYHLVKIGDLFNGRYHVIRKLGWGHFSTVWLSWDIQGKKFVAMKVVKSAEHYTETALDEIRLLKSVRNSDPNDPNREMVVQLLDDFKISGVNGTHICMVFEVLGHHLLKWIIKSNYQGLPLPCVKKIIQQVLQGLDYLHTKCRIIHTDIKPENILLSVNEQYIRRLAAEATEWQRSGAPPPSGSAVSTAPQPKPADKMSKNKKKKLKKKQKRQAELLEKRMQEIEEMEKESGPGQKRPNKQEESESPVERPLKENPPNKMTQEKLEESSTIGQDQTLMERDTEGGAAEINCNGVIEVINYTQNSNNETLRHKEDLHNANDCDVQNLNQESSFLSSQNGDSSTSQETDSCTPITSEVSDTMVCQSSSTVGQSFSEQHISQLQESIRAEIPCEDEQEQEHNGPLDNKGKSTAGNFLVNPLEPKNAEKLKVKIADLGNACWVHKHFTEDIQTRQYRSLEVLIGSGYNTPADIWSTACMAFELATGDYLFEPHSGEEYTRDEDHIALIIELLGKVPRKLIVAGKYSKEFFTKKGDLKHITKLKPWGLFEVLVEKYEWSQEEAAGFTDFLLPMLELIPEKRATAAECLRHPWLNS
- Assay method text: In vitro kinase assay (Life Technologies), SRPK1
- Run parameters: two independent assays
Recorded metric: IC50 (nM)
Numbers only, in nM.

So what does the record say about IC50 for O=C(O)c1ccc2c(c1)nc(Nc1cccc(Cl)c1)c1ccncc12 [CX-4945] ? 1230
